- STUDY_TARGET: pooled human IgG
MEASUREMENT_NAME: Enzyme Activity Endpoint Assay (purified): scIgG (ng/µL)
Write the value in ng/µL as a bare number.

Below: 3 proteins and their reported Enzyme Activity Endpoint Assay (purified): scIgG.
PRT-140 (protein) MRNATEAYAKEVPHQITSVWTKGVTPLTPEQFRYNNEDVIHAPYLAHQGWYDITKAFNGKDNLLCGAATAGNMLHWWFDQNKTEIEAYLSKHPEKQKIIFNNQELFDLKAAIDTKDSQTNSQLFNYFRDKAFPNLSARQLGVMPDLVLDMFINGYYLNVFKTQSTDVNRPYQDKDKRGGIFDAVFTRGDQTTLLTARHDLKNKGLNDISTIIKQELTEGRALALSHTYANVSISHVINLWGADFNAEGNLEAIYVTDSDANASIGMKKYFVGINAHGHVAISAKKIEGENIGAQVLGLFTLSSGKDIWQKLS
0
PRT-237 (protein) MEVVEVWPYGQNPNGKTEILSQTEDSESLQRLRDIEDFQAEKKMQNVVYTKWLDGVDVKDHDFRKIVDGNIEYYATPLLNGRGFYDINKDFNRDSDKCAAAVAANMFHYWLDINRDNVDRFLRQNPEKHGIIELPDGQLKLSDFLNTYESDHGYRDKSKLFDFISNNFNGPVWTDKLLDNYINGYAYNYKYGRTIEDPTKNTSKINFFKEVFNEKILTNNHSIRNQNEFSVLLSEALYTGKAIGLSYGPAGLRHSLGHIISVWGADLDADGNVVAIYVTDSDDKKLTIGDERVGLKRYKISTDDENRLRLTAYEETHNTGGQIRGLWTLDTGKYAWADYFDKTEQTGTDQAEQLEHHHHHH
461
PRT-153 (protein) MANQEIRYSEVTPYHVTSVWTKGVTPPANFTQGEDVFHAPYVANQGWYDITKTFNGKDDLLCGAATAGNMLHWWFDQNKTQIERYLKKHPEKQKINFNGEQMFDVKEAIDTKNHQLDSKLFEYFKEKAFPYLSTKHLGVFPDHVIDMFINGYRLSLTNHGPTPVKEGSKDPRGGIFDAVFTRGDQSKLLTSRHDFKEKNLKEISDLIKKELTEGKALGLSHTYANVRINHVINLWGADFDSNGNLKAIYVTDSDSNASIGMKKYFVGVNSAGKVAISAKEIKEDNIGAQVLGLFTLSTGKDSWKKTN
0

Attention now turns to another entry.
# get_value(readout='Enzyme Activity Endpoint Assay (purified): scIgG', item= PRT-229 (protein) MEVVEVWPYGQNPNGKTEILSQTEDSESLQRLRDIEDFQAEKKKQNVVYTKWLDGVDVKDHDFRKIVDGNIAYYATPLLNGRGFYDINKDFNRDSDKCAAAVAANMFHYWLDINRDNVDRFLRQNPEKHGIIELPDGQLKLSDFLNTYESDHGYRDKSKLFDFISNNFNGPVWTDKLLDNYINGYAYNYKYGRTIEDPTKNTSKINFFKEVFNEKILTNNHSIRNQNEFSVLLSEALYTGKAIGLSYGPAGLRHSLGHIISVWGADLDADGNVVAIYVTDSDDKKLTIGDERVGLKRYKISTDDENRLRLTAYEETHNTGGQIRGLWTLDTGKYAWADYFDKTEQTGTDQAEQLEHHHHHH )
294
